B1: LINE1-full (parent)
chain: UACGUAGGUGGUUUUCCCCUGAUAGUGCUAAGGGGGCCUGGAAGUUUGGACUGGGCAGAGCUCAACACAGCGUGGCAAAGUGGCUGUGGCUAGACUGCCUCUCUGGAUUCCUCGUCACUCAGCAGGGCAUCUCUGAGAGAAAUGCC

Variants of: B1
Experiment: self-cleavage, relative activity (ratio to wild type); higher = more cleavage; in vitro, sequencing; the parent is a self-cleaving ribozyme

{"chain": "UACGUAGGUGGUUUUCCGCUGAUAGUGCUAAGGGGGCCUGGAAGUUUGGACUGGGCAGAGCUCAACACAGCGUGGCAAAGUGGCUGUGGCUAGACUGCCUCUCUGGAUUCCUCGUCACUCAGCAGGGCAUCUCUGAGAGAAAUGCC [C18G]", "self-cleavage": 1.36}
{"chain": "UACGUAGGUGGUUUUCCCCCGAUAGUGCUAAGGGGGCCUGGAAGUUUGGACUGGGCAGAGCUCAACACAGCGUGGCAAAGUGGCUGUGGCUAGACUGCCUCUCUGGAUUCCUCGACACUCAGCAGGGCAUCUCUGAGAGAAAUGCC [U20C U115A]", "self-cleavage": 1.54}
{"chain": "UACGUAGGUGGUUUUCCCCUGAUAGUGCUAAGGGGGCCUGGAAGUUAGGACUGGGCAGAGCUCAACACAGCGUGGCAAAGUGGCUGUGGCUUGACUGCCUCUCUGGAUUCCUCGUCACUCAGCAGGGCAUCUCUGAGAGAAAUGCC [U47A A92U]", "self-cleavage": 0.5}
{"chain": "UACGUAGGUGGUUUUCCCCUGAUAGUGCUAAGGGGGCCUGGAAGUUUGGACUGGGCAGAGCUCAACACAGCGUUGCAUAGUGGCUGUGGCUAGACUGCCUCUCUGGAUUCCUCGUCACUCAGCAGGGCAUCUCUGAGAGAAAUGCC [G74U A78U]", "self-cleavage": 2.2}

Value source: the RNAGym collection of RNA variant scans (doi:10.7554/elife.90254)
